Field: IC50. Provide a value for each of the molecules that follow.
tested on: 134 cancer cell lines; assay: Cell viability assay (ATPlite, 72 hours), IC50 on cancer cell line panel; conditions: Homo sapiens, U2OS, read-out: IC50 in cell proliferation assay
One number for each entry, in µM.

{"molecule": "CCc1cc2c(cc1N1CCC(N3CCOCC3)CC1)C(C)(C)c1[nH]c3cc(C#N)ccc3c1C2=O [alectinib]", "study_system": "134 cancer cell lines", "unit_label": "µM", "IC50": 3.79}
{"molecule": "CCN1C(=O)N(c2c(F)c(OC)cc(OC)c2F)Cc2cnc3[nH]c(CN4CCOCC4)cc3c21 [pemigatinib]", "study_system": "134 cancer cell lines", "unit_label": "µM", "IC50": 2.95}
{"molecule": "C=CC(=O)N1CCC[C@@H](n2nc(-c3ccc(Oc4ccccc4)cc3)c3c(N)ncnc32)C1 [ibrutinib]", "study_system": "134 cancer cell lines", "unit_label": "µM", "IC50": 10.1}

For each of the molecules below, note its IC50.
1. CCn1c(=O)c(-c2cc(NC(=O)Nc3ccccc3)c(F)cc2Br)cc2cnc(NC)cc21 [ripretinib]
2. COc1cc(N2CCC(N3CCN(C)CC3)CC2)ccc1Nc1ncc(Cl)c(Nc2ccccc2P(C)(C)=O)n1 [brigatinib]
3. C[C@H]1Oc2cc(cnc2N)-c2c(nn(C)c2C#N)CN(C)C(=O)c2ccc(F)cc21 [lorlatinib]

Output:
1. 3.38
2. 1.24
3. 8.64

---

Provide the recorded inhibition at 1 µM for the entries that follow.
molecular target: panel of 255 wild-type kinases (Homo sapiens, UniProt P50750); assay: Kinase panel profiling at 1 µmol/L (MSA or IMAP), percentage inhibition; assay type: biochemical; details: CDK9/CycT1 kinase assay; 1 µmol/L single concentration; read-out: %-inhibition CDK9/CycT1
Sequence (P50750 whole entry): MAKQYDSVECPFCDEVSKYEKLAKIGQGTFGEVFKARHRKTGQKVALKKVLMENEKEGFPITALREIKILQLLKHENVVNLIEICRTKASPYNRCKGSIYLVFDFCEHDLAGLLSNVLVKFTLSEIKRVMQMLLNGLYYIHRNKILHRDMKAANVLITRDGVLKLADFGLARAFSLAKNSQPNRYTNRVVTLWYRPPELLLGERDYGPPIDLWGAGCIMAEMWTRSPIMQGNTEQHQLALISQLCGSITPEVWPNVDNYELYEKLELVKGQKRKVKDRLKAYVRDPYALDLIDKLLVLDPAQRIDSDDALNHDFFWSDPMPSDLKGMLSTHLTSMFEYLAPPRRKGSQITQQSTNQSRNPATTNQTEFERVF

{"smiles_input": "Cc1cc(Nc2ncnc3ccc(NC4=NC(C)(C)CO4)cc23)ccc1Oc1ccn2ncnc2c1", "study_system": "panel of 255 wild-type kinases (Homo sapiens, UniProt P50750)", "inhibition at 1 µM": "1.53%"}

For each of the molecules below, note its inhibition at 1 µM.
1. COC(=O)N[C@@H](C)CNc1nccc(-c2cn(C(C)C)nc2-c2cc(Cl)cc(NS(C)(=O)=O)c2F)n1
2. FC(F)(F)c1ccc(CNc2ccc(Cc3c[nH]c4ncc(Cl)cc34)cn2)cn1
3. CO[C@]1(C(=O)N[C@@H](C)c2ccc(-n3cc(F)cn3)nc2)CC[C@H](c2nc(C)cc(Nc3cc(C)[nH]n3)n2)CC1
4. COc1ccc(CN2C3CC2CN(c2ccc(-c4cc(OCC(C)(C)O)cn5ncc(C#N)c45)cn2)C3)cn1
5. Cn1cc(-c2cc3c(N4CCN(c5ncc([C@@](C)(N)c6ccc(F)cc6)cn5)CC4)ncnn3c2)cn1
6. Cn1cnc2c(F)c(Nc3ccc(Br)cc3F)c(C(=O)NOCCO)cc21

Output:
1. -1.11%
2. 7%
3. 6%
4. 2.54%
5. 49%
6. -1.47%

For the 2 molecules below, give their inhibition at 1 µM values.
1. Cn1cnc2c(F)c(Nc3ccc(Br)cc3Cl)c(C(=O)NOCCO)cc21
2. C[C@H](Nc1ncnc2nc[nH]c12)c1cc2cccc(Cl)c2c(=O)n1-c1ccccc1

Output:
-2.15%
-0.441%

Each of the following entries comes with a recorded value; kindly state inhibition at 1 µM for each.
1. Cc1nc(NC(=O)N2CCC[C@H]2C(N)=O)sc1-c1ccnc(C(C)(C)C(F)(F)F)c1
2. CCN1C(=O)N(c2c(F)c(OC)cc(OC)c2F)Cc2cnc3[nH]c(CN4CCOCC4)cc3c21
3. CN1CCN(c2ccc(C(=O)Nc3n[nH]c4ccc(Cc5cc(F)cc(F)c5)cc34)c(NC3CCOCC3)c2)CC1
4. COc1cc2ncnc(Nc3ccc(F)c(Cl)c3)c2cc1NC(=O)/C=C/CN1CCCCC1
5. O=C(Nc1cnn2ccc(N3CCC[C@@H]3c3cc(F)ccc3F)nc12)N1CC[C@H](O)C1
6. C=CC(=O)N1CCC([C@@H]2CCNc3c(C(N)=O)c(-c4ccc(Oc5ccccc5)cc4)nn32)CC1

Output:
["-0.929%", "7%", "1.79%", "3.6%", "-0.399%", "-1.15%"]

---

molecular target: panel of 255 wild-type kinases (Homo sapiens); assay: Kinase panel profiling at 1 µmol/L (MSA or IMAP), percentage inhibition; assay type: biochemical; settings: kinase PKD2; 1 µmol/L single concentration; read-out: %-inhibition at 1 µmol/L, PKD2
Record form. Attribute: inhibition at 1 µM. Fill in for each entry.
A bare number is not enough; add the unit after it.

I need inhibition at 1 µM for every entry listed below, if you could help.
1. CO[C@]1(C(=O)N[C@@H](C)c2ccc(-n3cc(F)cn3)nc2)CC[C@H](c2nc(C)cc(Nc3cc(C)[nH]n3)n2)CC1
2. Cn1cc(-c2cc3c(N4CCN(c5ncc([C@@](C)(N)c6ccc(F)cc6)cn5)CC4)ncnn3c2)cn1
3. C[C@H](Nc1ncnc2nc[nH]c12)c1cc2cccc(Cl)c2c(=O)n1-c1ccccc1

Output:
1. -9%
2. -0.865%
3. -12%

---

I'd be grateful if you could share measured pIC50 for these entries.
system: 134 cancer cell lines; assay: Cell viability assay (ATPlite, 72 hours), IC50 on cancer cell line panel; conditions: Homo sapiens, BXPC-3, read-out: IC50 in cell proliferation assay, cell line BxPC-3
Give bare numbers, as −log10 of the molar value.

{"molecule": "CN1CCN(c2ccc(C(=O)Nc3n[nH]c4ccc(Cc5cc(F)cc(F)c5)cc34)c(NC3CCOCC3)c2)CC1 [entrectinib]", "study_system": "134 cancer cell lines", "quantity_name": "pIC50", "recorded_value": 5.22}
{"molecule": "CO[C@]1(C(=O)N[C@@H](C)c2ccc(-n3cc(F)cn3)nc2)CC[C@H](c2nc(C)cc(Nc3cc(C)[nH]n3)n2)CC1 [pralsetinib]", "study_system": "134 cancer cell lines", "quantity_name": "pIC50", "recorded_value": 5.46}

Return reported pIC50 values for all items listed beneath this line.
1. CC(=O)Nc1cccc(-n2c(=O)n(C3CC3)c(=O)c3c(Nc4ccc(I)cc4F)n(C)c(=O)c(C)c32)c1 [trametinib]
2. COc1ccc(CN2C3CC2CN(c2ccc(-c4cc(OCC(C)(C)O)cn5ncc(C#N)c45)cn2)C3)cn1 [selpercatinib]

Output:
[7.42, 5.40]

---

test system: 134 cancer cell lines; test: Cell viability assay (ATPlite, 72 hours), IC50 on cancer cell line panel; settings: Homo sapiens, EOL1, read-out: IC50 in cell proliferation assay, cell line EoL-1 (FIP1L1-PDGFRA)
I'd be grateful if you could share measured pIC50 for these entries.
One number for each entry, as −log10 of the molar value.

Example entries begin here.
{"compound": "CN1CCN(c2ccc(C(=O)Nc3n[nH]c4ccc(Cc5cc(F)cc(F)c5)cc34)c(NC3CCOCC3)c2)CC1 [entrectinib]", "pIC50": 6.29}
{"compound": "FC(F)(F)c1ccc(CNc2ccc(Cc3c[nH]c4ncc(Cl)cc34)cn2)cn1 [pexidartinib]", "pIC50": 8.00}
{"compound": "Cc1cc(Nc2ncnc3ccc(NC4=NC(C)(C)CO4)cc23)ccc1Oc1ccn2ncnc2c1 [tucatinib]", "pIC50": 5.37}

Lab note: next compound to report on.
Task: # query: pIC50 of entry Cc1cc(Nc2ncc(Cl)c(Nc3ccccc3S(=O)(=O)C(C)C)n2)c(OC(C)C)cc1C1CCNCC1 [ceritinib]
Output: 6.25

---

biological target: panel of 255 wild-type kinases (Homo sapiens, UniProt O75582); assay: Kinase panel profiling at 1 µmol/L (MSA or IMAP), percentage inhibition; type: biochemical; conditions: MSK1; 1 µmol/L single concentration; read-out: %-inhibition, MSK1
Sequence (O75582 whole entry): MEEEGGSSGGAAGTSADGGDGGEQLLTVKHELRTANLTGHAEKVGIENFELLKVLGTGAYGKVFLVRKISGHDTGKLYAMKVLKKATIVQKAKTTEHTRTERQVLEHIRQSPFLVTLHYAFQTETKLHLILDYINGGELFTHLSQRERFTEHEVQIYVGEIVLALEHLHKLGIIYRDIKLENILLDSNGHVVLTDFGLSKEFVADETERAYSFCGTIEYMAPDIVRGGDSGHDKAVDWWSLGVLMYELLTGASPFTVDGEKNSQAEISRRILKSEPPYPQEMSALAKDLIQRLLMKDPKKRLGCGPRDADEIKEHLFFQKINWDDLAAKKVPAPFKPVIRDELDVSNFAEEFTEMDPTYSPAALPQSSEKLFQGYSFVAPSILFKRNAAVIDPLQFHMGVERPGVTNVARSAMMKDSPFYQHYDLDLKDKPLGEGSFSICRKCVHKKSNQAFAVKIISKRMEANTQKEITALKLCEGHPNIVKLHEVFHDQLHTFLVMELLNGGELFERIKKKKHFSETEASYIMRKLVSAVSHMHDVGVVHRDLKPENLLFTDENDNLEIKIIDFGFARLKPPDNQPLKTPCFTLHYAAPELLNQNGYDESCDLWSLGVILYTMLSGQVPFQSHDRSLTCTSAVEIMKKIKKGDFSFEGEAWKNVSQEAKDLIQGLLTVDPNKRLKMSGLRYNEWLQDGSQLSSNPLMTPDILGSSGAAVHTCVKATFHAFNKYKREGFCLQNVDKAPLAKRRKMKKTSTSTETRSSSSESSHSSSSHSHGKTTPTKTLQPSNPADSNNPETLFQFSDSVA
quantity_name: inhibition at 1 µM (%)
Numbers only, in %.

Consider the following illustrative entries.
{"smiles_input": "COc1cc2ncnc(Nc3ccc(F)c(Cl)c3)c2cc1NC(=O)/C=C/CN1CCCCC1", "unit_label": "%", "inhibition at 1 µM": 1.13}
{"smiles_input": "Cc1cc(Nc2ncnc3ccc(NC4=NC(C)(C)CO4)cc23)ccc1Oc1ccn2ncnc2c1", "unit_label": "%", "inhibition at 1 µM": 2.56}
{"smiles_input": "Cn1cc(-c2cc3c(N4CCN(c5ncc([C@@](C)(N)c6ccc(F)cc6)cn5)CC4)ncnn3c2)cn1", "unit_label": "%", "inhibition at 1 µM": 2.36}

Need inhibition at 1 µM for each of these compounds.
1. COC(=O)N[C@@H](C)CNc1nccc(-c2cn(C(C)C)nc2-c2cc(Cl)cc(NS(C)(=O)=O)c2F)n1
2. C[C@H](Nc1ncnc2nc[nH]c12)c1cc2cccc(Cl)c2c(=O)n1-c1ccccc1
3. CCc1nc(C(N)=O)c(Nc2ccc(N3CCC(N4CCN(C)CC4)CC3)c(OC)c2)nc1NC1CCOCC1
4. COc1ccc(CN2C3CC2CN(c2ccc(-c4cc(OCC(C)(C)O)cn5ncc(C#N)c45)cn2)C3)cn1

Output:
11
-8
25
24
